SUBJECT OF TEST: Beta-1 adrenergic receptor (Homo sapiens)
Sequence (P08588 whole entry): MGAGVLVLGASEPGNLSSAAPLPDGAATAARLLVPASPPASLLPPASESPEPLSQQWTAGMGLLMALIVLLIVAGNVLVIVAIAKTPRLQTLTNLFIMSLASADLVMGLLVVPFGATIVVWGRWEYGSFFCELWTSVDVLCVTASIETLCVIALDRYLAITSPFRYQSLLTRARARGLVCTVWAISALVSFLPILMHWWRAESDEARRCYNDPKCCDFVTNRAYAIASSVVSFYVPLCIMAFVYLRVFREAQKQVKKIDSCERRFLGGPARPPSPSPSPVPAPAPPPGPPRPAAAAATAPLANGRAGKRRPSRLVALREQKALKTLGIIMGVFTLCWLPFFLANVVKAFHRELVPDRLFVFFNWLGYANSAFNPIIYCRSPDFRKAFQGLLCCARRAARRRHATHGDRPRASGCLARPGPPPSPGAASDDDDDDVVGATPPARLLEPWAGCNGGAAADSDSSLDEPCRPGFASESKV
Format: functional
As shown below, each of these compounds has a reported AC50 value.

The cases that follow already have their AC50 on record.
* CC(=O)O[C@H](CC(=O)[O-])C[N+](C)(C)C | > 30 µM
* CCCC(CCC)C(=O)O | > 10 µM

Inquiry: Entry O=C1CN(/N=C/c2ccc(-c3ccc([N+](=O)[O-])cc3)o2)C(O)=N1 has what AC50?
Reply text: > 10 µM

Inquiry: Need AC50 of C[C@@H](Oc1cc(-c2cnn(C3CCNCC3)c2)cnc1N)c1c(Cl)ccc(F)c1Cl , thanks.
Reply text: > 30 µM

Inquiry: Which AC50 is listed for Clc1ccc(C(Cn2ccnc2)OCc2ccsc2Cl)c(Cl)c1 (stereo not given) ?
Reply text: 24.3 µM

====

SUBJECT OF TEST: UniProt P08913
Sequence (P08913 whole entry): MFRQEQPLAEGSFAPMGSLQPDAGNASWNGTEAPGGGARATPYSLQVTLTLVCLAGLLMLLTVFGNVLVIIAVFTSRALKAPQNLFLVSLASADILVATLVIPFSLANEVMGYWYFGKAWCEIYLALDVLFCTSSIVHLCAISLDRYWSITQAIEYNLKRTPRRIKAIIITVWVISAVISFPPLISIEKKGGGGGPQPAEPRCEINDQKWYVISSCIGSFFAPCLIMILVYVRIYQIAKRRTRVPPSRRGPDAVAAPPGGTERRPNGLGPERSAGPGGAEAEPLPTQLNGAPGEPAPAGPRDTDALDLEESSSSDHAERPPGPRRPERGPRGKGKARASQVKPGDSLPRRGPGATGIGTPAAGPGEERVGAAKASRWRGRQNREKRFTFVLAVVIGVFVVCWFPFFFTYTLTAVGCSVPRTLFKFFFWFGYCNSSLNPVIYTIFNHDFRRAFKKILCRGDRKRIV
Assay type: functional, cell-based
Collected AC50 values appear next to each entry.

• CN(C)CCCNc1c2ccccc2nc2cccc([N+](=O)[O-])c12 [NITRACRINE] = > 30 µM
• O=C1CN=C(c2ccccn2)c2cc(Br)ccc2N1 [BROMAZEPAM] = > 10 µM
• NC1CCN(c2nc3c(cc2F)c(=O)c(C(=O)O)cn3-c2ccc(F)cc2F)C1 (stereo not drawn) [TOSUFLOXACIN] = > 30 µM
• CCN1CCCC1CNC(=O)c1cc(S(=O)(=O)CC)c(N)cc1OC (stereo not drawn) [AMISULPRIDE] = > 30 µM
• CCC1(c2ccccc2)CCC(=O)NC1=O (stereo not drawn) [GLUTETHIMIDE] = > 10 µM

Inquiry: # input compound: CN1C[C@H](C(=O)N[C@]2(C)O[C@@]3(O)[C@@H]4CCCN4C(=O)[C@H](Cc4ccccc4)N3C2=O)C=C2c3cccc4[nH]cc(c34)C[C@H]21 [ERGOTAMINE] ; wanted: its AC50
Reply text: > 10 µM

Inquiry: Look up AC50 for this compound: C=CCNc1nc(NCC=C)nc(N2CCN(C(c3ccc(F)cc3)c3ccc(F)cc3)CC2)n1 [ALMITRINE]
Reply text: > 30 µM

Inquiry: Bench note: what AC50 did CNC1=Nc2ccc(Cl)cc2C(c2ccccc2)=[N+]([O-])C1 [CHLORDIAZEPOXIDE] show?
Reply text: > 10 µM

Inquiry: Would you kindly share the measured AC50 for CCCCCC(=O)O[C@]1(C(C)=O)CC[C@H]2[C@@H]3CCC4=CC(=O)CC[C@]4(C)[C@H]3CC[C@@]21C [HYDROXYPROGESTERONE CAPROATE] ?
Reply text: > 30 µM

Inquiry: # query: AC50 of entry CC(C)N(CCC(C(N)=O)(c1ccccc1)c1ccccn1)C(C)C (stereo not drawn) [DISOPYRAMIDE]
Reply text: > 10 µM

Inquiry: Can you look up the measured AC50 of N[C@@H](CC(=O)N1CCn2c(nnc2C(F)(F)F)C1)Cc1cc(F)c(F)cc1F [SITAGLIPTIN] for me?
Reply text: > 30 µM

Inquiry: Recorded AC50 of CCN(CC)C(=O)Nc1ccc(OCC(O)CNC(C)(C)C)c(C(C)=O)c1 (stereo not drawn) [CELIPROLOL] , please.
Reply text: > 30 µM

Inquiry: Need AC50, item COc1ccccc1Oc1c(NS(=O)(=O)c2ccc(C(C)(C)C)cc2)nc(-c2ncccn2)nc1OCCO [BOSENTAN]
Reply text: > 10 µM

====

Entries with reported AC50 on Alpha-1A adrenergic receptor (Homo sapiens, UniProt P35348)
Sequence (P35348 whole entry): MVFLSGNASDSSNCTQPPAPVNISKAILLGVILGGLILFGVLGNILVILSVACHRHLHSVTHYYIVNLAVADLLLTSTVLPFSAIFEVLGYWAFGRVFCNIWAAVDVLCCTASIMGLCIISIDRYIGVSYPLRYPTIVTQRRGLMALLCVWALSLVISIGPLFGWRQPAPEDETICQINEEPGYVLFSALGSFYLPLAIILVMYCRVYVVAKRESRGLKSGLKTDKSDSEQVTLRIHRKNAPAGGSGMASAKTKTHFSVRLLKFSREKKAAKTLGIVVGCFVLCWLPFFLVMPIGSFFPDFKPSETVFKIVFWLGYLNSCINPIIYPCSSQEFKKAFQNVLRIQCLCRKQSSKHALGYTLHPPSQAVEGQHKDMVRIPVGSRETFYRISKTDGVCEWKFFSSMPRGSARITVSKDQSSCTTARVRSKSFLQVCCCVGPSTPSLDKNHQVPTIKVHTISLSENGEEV

* Cn1cnc2c(F)c(Nc3ccc(Br)cc3Cl)c(C(=O)NOCCO)cc21 | > 10 µM
* CCC1(c2ccccc2)CCC(=O)NC1=O (stereo not drawn) [GLUTETHIMIDE] | > 10 µM

Inquiry: Consider the compound CNCc1ccc(-c2[nH]c3cc(F)cc4c3c2CCNC4=O)cc1 and give its measured AC50.
Reply text: 12.3 µM

Inquiry: Would you mind telling me what AC50 value was observed for O=C1CCc2cc(OCCCCc3nnnn3C3CCCCC3)ccc2N1 ?
Reply text: > 10 µM

Inquiry: Form field: reported AC50 of CO[C@H]1/C=C/O[C@@]2(C)Oc3c(C)c(O)c4c(O)c(c(/C=N/N5CCN(C)CC5)c(O)c4c3C2=O)NC(=O)/C(C)=C\C=C\[C@H](C)[C@H](O)[C@@H](C)[C@@H](O)[C@@H](C)[C@H](OC(C)=O)[C@@H]1C
Reply text: 2.33 µM

Inquiry: Looking for the measured AC50 of CC(C(=O)O)c1ccc2c(c1)[nH]c1ccc(Cl)cc12 (stereo not drawn) , can you help?
Reply text: > 10 µM

Inquiry: Data request, read-out AC50, for OC1(c2ccc(Cl)cc2)c2ccccc2C2=NCCN21 (stereo not drawn)
Reply text: > 10 µM

Inquiry: Need AC50 of Cc1noc(NS(=O)(=O)c2ccc(N)cc2)c1C , thanks.
Reply text: > 10 µM

====

AC50, Delta-type opioid receptor (Homo sapiens), per-entry values.

- Clc1ccc(C(Cn2ccnc2)OCc2ccsc2Cl)c(Cl)c1 (stereo not drawn): 3.2 µM
- Nc1ccc(S(=O)(=O)Nc2nccs2)cc1: > 30 µM

Let us move to another entry and its AC50.
Inquiry: I have this molecule here, CCN1CCCC1CNC(=O)c1cc(S(=O)(=O)CC)c(N)cc1OC (stereo not drawn) [AMISULPRIDE] , and I need its recorded AC50.
Reply text: > 30 µM

====

Listing: AC50 of selected molecules
SUBJECT OF TEST: Muscarinic acetylcholine receptor M1 (Homo sapiens, UniProt P11229)
Sequence (P11229 whole entry): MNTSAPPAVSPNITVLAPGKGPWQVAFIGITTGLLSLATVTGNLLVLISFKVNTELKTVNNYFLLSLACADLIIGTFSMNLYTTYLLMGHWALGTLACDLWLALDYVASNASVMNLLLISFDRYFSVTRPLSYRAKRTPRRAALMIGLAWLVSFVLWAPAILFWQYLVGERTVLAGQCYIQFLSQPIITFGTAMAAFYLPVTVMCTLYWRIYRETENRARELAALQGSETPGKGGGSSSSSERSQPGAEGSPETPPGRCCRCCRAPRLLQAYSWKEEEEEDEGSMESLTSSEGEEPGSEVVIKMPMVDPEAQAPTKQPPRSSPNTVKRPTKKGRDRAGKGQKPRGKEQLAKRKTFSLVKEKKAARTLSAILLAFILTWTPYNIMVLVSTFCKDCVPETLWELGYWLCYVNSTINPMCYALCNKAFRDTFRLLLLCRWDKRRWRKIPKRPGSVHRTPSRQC
Type: functional

Examples with their reported AC50 follow.
- [H]/N=C(/N)N/C(=N/[H])NCCc1ccccc1: > 30 µM
- CN(CC1(C)CCCO1)S(=O)(=O)c1ccc(Cl)c(S(N)(=O)=O)c1 (stereo unspecified) [MEFRUSIDE]: > 30 µM
- CCN(CC)CCN1C(=O)CN=C(c2ccccc2F)c2cc(Cl)ccc21: > 10 µM
- CCCC(CCC)C(N)=O [VALPROMIDE]: > 10 µM
- COc1ccc(-c2noc(CC(=O)O)c2-c2ccc(OC)cc2)cc1: > 30 µM
- C/C(=C\C(=O)OCCCCCCCCC(=O)O)C[C@@H]1OC[C@H](C[C@@H]2O[C@H]2[C@@H](C)[C@H](C)O)[C@@H](O)[C@H]1O: > 10 µM

Inquiry: Any idea what AC50 was measured for CCCN(CCC)C(=O)Cc1c(-c2ccc(Cl)cc2)nc2ccc(Cl)cn12 ?
Reply text: > 30 µM

Inquiry: Sample CC(C)(C)C(=O)OCC(=O)[C@H]1CC[C@H]2[C@@H]3CCC4=CC(=O)CC[C@]4(C)[C@H]3CC[C@]12C [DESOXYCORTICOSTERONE PIVALATE] — what was its AC50?
Reply text: > 10 µM

Inquiry: Could you share which AC50 value was measured for CCC(COC(=O)c1cc(OC)c(OC)c(OC)c1)(c1ccccc1)N(C)C (stereo unspecified) ?
Reply text: > 30 µM

Inquiry: Given CC(=O)OCC(=O)[C@@]1(O)[C@H](C)C[C@H]2[C@@H]3CCC4=CC(=O)C=C[C@]4(C)[C@@]3(F)[C@@H](O)C[C@@]21C [DEXAMETHASONE ACETATE] , state its recorded AC50.
Reply text: > 10 µM

Inquiry: Field request: AC50 | item: CC1OC2(CS1)CN1CCC2CC1 (stereo unspecified)
Reply text: > 30 µM

Inquiry: Find the recorded AC50 belonging to COc1cc2nccc(Oc3ccc(NC(=O)C4(C(=O)Nc5ccc(F)cc5)CC4)cc3)c2cc1OC [CABOZANTINIB] and report it.
Reply text: > 30 µM

Inquiry: Record request: AC50 value, item CC[C@@H]([C@H](C)O)n1ncn(-c2ccc(N3CCN(c4ccc(OC[C@@H]5CO[C@@](Cn6cncn6)(c6ccc(F)cc6F)C5)cc4)CC3)cc2)c1=O
Reply text: > 30 µM

Inquiry: Find the recorded AC50 belonging to C[N@+]1(CCF)[C@@H]2CC[C@H]1C[C@@H](OC(=O)C(O)(c1ccccc1)c1ccccc1)C2 and report it.
Reply text: 0.0066 µM

Inquiry: What measured AC50 goes with CC(C)[C@H](N)C(=O)OCC(CO)OCn1cnc2c(=O)nc(N)[nH]c21 (stereo partly specified) ?
Reply text: > 30 µM

Inquiry: Fill in: AC50 of OC1(c2ccc(Cl)cc2)c2ccccc2C2=NCCN21 (stereo unspecified) is ___
Reply text: > 30 µM

====

# key: entry, value: AC50
SUBJECT OF TEST: Voltage-gated inwardly rectifying potassium channel KCNH2 (Homo sapiens)
Sequence (Q12809 whole entry): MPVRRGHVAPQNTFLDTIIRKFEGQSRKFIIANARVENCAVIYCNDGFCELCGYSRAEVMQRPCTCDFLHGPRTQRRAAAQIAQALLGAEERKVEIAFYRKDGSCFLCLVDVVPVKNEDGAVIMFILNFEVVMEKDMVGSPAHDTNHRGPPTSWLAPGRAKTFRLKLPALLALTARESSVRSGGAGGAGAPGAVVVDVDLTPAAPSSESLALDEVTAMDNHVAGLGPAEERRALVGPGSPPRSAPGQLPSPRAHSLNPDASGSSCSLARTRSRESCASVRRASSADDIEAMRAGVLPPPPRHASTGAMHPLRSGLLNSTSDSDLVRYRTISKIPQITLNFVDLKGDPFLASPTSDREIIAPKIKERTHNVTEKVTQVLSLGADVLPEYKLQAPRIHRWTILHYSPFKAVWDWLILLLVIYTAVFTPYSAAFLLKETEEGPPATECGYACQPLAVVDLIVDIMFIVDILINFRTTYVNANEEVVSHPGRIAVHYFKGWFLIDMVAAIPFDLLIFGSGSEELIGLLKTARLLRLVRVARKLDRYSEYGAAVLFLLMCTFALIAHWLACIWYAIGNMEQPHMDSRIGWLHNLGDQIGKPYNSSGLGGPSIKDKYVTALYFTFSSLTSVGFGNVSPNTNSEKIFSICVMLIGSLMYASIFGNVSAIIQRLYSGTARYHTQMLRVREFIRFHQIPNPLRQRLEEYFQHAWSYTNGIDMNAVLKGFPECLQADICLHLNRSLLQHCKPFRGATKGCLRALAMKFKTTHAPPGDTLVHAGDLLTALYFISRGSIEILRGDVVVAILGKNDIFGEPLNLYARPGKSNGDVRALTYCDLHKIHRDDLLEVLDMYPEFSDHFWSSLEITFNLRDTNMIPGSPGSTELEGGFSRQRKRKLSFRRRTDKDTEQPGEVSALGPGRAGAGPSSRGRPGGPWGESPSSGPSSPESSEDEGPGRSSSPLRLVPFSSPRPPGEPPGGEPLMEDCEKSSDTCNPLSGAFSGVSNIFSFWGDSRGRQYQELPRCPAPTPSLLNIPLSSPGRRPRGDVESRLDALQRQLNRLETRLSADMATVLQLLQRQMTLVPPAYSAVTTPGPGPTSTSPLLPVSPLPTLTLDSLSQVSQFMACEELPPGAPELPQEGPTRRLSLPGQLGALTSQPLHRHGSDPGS
Format: functional

- C[C@H](Cc1cc2c(c(C(N)=O)c1)N(CCCO)CC2)NCCOc1ccccc1OCC(F)(F)F: 12.8 µM

Inquiry: Param item = COc1ccc2nc3cc(Cl)ccc3c(Nc3cc(CN4CCCC4)c(O)c(CN4CCCC4)c3)c2n1 ; retrieve measured AC50.
Reply text: 0.28 µM

Inquiry: Reported AC50, compound CC(=O)O[C@H](CC(=O)[O-])C[N+](C)(C)C : ____
Reply text: > 30 µM

Inquiry: Report AC50 for CNC1=Nc2ccc(Cl)cc2C(c2ccccc2)=[N+]([O-])C1 [CHLORDIAZEPOXIDE] please.
Reply text: > 30 µM

Inquiry: Which AC50 is listed for CN1CCC(=C2c3ccccc3Sc3ccccc32)CC1 ?
Reply text: 3.9 µM

Inquiry: Name the reported AC50 value associated with the compound C/N=C(\NC)NCc1ccccc1
Reply text: > 30 µM

Inquiry: Return reported AC50; argument: CC(=O)[C@]1(O)Cc2c(O)c3c(c(O)c2[C@@H](O[C@H]2C[C@H](N)[C@H](O)[C@H](C)O2)C1)C(=O)c1ccccc1C3=O
Reply text: 20.7 µM

Inquiry: Bench note: what AC50 did CN1CCC(=C2c3ccccc3CCc3cccnc32)CC1 show?
Reply text: 24.6 µM

Inquiry: Tell me the measured AC50 of O=C1CN=C(c2ccccn2)c2cc(Br)ccc2N1 , please.
Reply text: > 30 µM

Inquiry: Given O=C(O)CCNC(=O)c1ccccc1 , state its recorded AC50.
Reply text: > 30 µM
